Cited source: ChEMBL document CHEMBL4052765

- System: Staphylococcus aureus
- procedure-summary: Antibacterial activity against erythromycin-susceptible Staphylococcus aureus ATCC 25923 after 24 h by NCCLS broth microdilution method
- Assay type: functional
- test-conditions: ATCC 25923, 24 h
Below: a set of entries, each annotated with reported MIC.
measured-parameter: MIC (µg/mL)

INSERT INTO assay_data (chem_smiles, measured) VALUES
  ('CC[C@H]1OC(=O)[C@H](C)C(=O)[C@H](C)[C@@H](O[C@@H]2O[C@H](C)C[C@H](N(C)C)[C@H]2O)[C@](C)(OC)C[C@@H](C)C(=O)[C@H](C)[C@@H](OC(=O)NCCNC(=O)/C=C/c2ccccc2)[C@]1(C)O', 32),
  ('CC[C@H]1OC(=O)[C@H](C)[C@@H](O[C@H]2C[C@@](C)(OC)[C@@H](O)[C@H](C)O2)[C@H](C)[C@@H](O[C@@H]2O[C@H](C)C[C@H](N(C)C)[C@H]2O)[C@](C)(OC)C[C@@H](C)C(=O)[C@H](C)[C@@H](O)[C@]1(C)O', 0.25),
  ('CC[C@H]1OC(=O)[C@H](C)C(=O)[C@H](C)[C@@H](O[C@@H]2O[C@H](C)C[C@H](N(C)C)[C@H]2O)[C@](C)(OC)C[C@@H](C)C(=O)[C@H](C)[C@@H](OC(=O)NCCNC(=O)/C=C/c2ccco2)[C@]1(C)O', 64),
  ('CC[C@H]1OC(=O)[C@H](C)C(=O)[C@H](C)[C@@H](O[C@@H]2O[C@H](C)C[C@H](N(C)C)[C@H]2O)[C@](C)(OC)C[C@@H](C)C(=O)[C@H](C)[C@@H](OC(=O)NCCNC(=O)c2ccccc2)[C@]1(C)O', 64);
